# target desc: UniProtKB Q9UKP6
# method summary: Activity against human urotensin-2 receptor expressed in NIH3T3 cells
# Format: cell-based
measurement kind: Efficacy (%)

// solved cases for Efficacy follow
COc1cccc(NC(=O)OC(CCN(C)C)c2ccc(Cl)cc2)c1 (centres undefined) :: 136
Cc1ccc(C(=O)OC(CCN(C)C)c2ccc(Cl)cc2)cc1 (centres undefined) :: 56
CN(C)CCC(OC(=O)c1cc2ccccc2n1C)c1ccc(Cl)cc1 (centres undefined) :: 73

I. CN(C)CCC1(c2ccc(Cl)cc2)Cc2ccccc2C(=O)O1 (centres undefined)
II. CN(C)CCC(OC(=O)c1ccc2ccccc2c1)c1ccc(Cl)cc1 (centres undefined)
III. CN(C)CCC(NC(=O)Nc1ccc(-c2ccccc2)cc1)c1ccc(Cl)cc1 (centres undefined)
Problem: Put the items in sequence by Efficacy, from largest down. # output: labels, in the requested order
Result: I, III, II
(I: 133%, III: 91%, II: 49%)

A. CCc1ccccc1C(=O)N[C@@H](CCN(C)C)c1ccc(Cl)cc1
B. CN(C)CC[C@@H](NC(=O)c1ccc(-c2ccccc2)cc1)c1ccc(Cl)cc1
Problem: Pick the one with the larger Efficacy: A vs B Your choice should be expressed through its label.
Result: A

----------
# target desc: UniProt:Q9UKP6
# method summary: Activity against human urotensin-2 receptor expressed in NIH3T3 cells
# Type: cell-based
measurement kind: Efficacy (%)

// below: answered molecules
Cc1cccc(Cl)c1C(=O)NC(CCN(C)C)c1ccc(Cl)cc1 (stereo unspecified) :: 105
Cc1ccccc1NC(=O)NC(CCN(C)C)c1ccc(Cl)cc1 (stereo unspecified) :: 175
CN(C)CC[C@H](NC(=O)c1ccc2ccccc2c1)c1ccc(Cl)cc1 :: 109
Cc1cc(C)c(C(=O)NC(CCN(C)C)c2ccc(Cl)cc2)cc1C (stereo unspecified) :: 159
COc1ccc(NC(=O)NC(CCN(C)C)c2ccc(Cl)cc2)cc1 (stereo unspecified) :: 195

1. CN(C)CCC(OC(=O)Nc1ccc(-c2ccccc2)cc1)c1ccc(Cl)cc1 (stereo unspecified)
2. CN(C)CCC(NC(=O)Cc1ccccc1)c1ccc(Cl)cc1 (stereo unspecified)
3. CN(C)CCC(OC(=O)c1cccc2ccccc12)c1ccc(Cl)cc1 (stereo unspecified)
Problem: Ascending by Efficacy, please: list the molecules accordingly. Put the labels in the order asked and list them.
Result: 1, 3, 2

----------
# target desc: Urotensin-2 receptor (Homo sapiens) (UniProt Q9UKP6)
# method summary: Activity against human urotensin-2 receptor expressed in NIH3T3 cells
# Format: cell-based
measurement kind: Efficacy (%)

Record excerpt, results attached:
CN(C)CCC(NC(=O)c1ccc2c(c1)OCO2)c1ccc(Cl)cc1 (stereo not given) :: 154
CN(C)CCC(NC(=O)c1ccc(N(C)C)cc1)c1ccc(Cl)cc1 (stereo not given) :: 150
CN(C)CCC(NC(=O)c1ccc(-c2ccccc2)cc1)c1ccc(Cl)cc1 (stereo not given) :: 116

1. CN(C)CCC(NC(=O)c1ccccc1)c1ccc(Cl)cc1 (stereo not given)
2. Cc1cccc(C(=O)OC(CCN(C)C)c2ccc(Cl)cc2)c1C (stereo not given)
Problem: # return whichever of 1 and 2 has the smaller Efficacy // return label of chosen record
Result: 2

----------
# target desc: Urotensin-2 receptor (Homo sapiens)
# Sequence (Q9UKP6 whole entry): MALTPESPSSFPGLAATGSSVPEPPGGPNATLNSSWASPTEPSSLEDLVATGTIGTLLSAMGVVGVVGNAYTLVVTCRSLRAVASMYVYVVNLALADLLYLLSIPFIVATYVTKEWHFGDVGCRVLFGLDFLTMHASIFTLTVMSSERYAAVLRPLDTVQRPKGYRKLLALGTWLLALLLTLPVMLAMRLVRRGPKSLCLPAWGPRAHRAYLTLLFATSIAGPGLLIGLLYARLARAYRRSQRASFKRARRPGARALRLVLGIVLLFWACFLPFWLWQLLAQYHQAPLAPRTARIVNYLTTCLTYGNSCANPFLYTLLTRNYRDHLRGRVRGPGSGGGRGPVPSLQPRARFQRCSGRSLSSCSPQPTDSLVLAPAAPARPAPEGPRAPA
# method summary: Activity against human urotensin-2 receptor expressed in NIH3T3 cells
measurement kind: EC50 (nM)

// known answers, use as guide
CN(C)CCC(OC(=O)Nc1ccc(Oc2ccccc2)cc1)c1ccc(Cl)cc1 (configuration not stated) :: 191
CO[C@@H](C(=O)N[C@@H](CCN(C)C)c1ccc(Cl)cc1)c1ccccc1 :: 871

I. CCc1ccccc1C(=O)N[C@@H](CCN(C)C)c1ccc(Cl)cc1
II. CN(C)CCC(OC(=O)Nc1ccc(C(F)(F)F)cc1)c1ccc(Cl)cc1 (configuration not stated)
Problem: Form: Entry with minimum EC50 (choose one): I / II Answer format: the label of the selected item.
Result: II

P. CN(C)CCC(OC(=O)Nc1ccc(C(C)(C)C)cc1)c1ccc(Cl)cc1 (configuration not stated)
Q. CN(C)CCC(NC(=O)c1ccc(C(F)(F)F)cc1)c1ccc(Cl)cc1 (configuration not stated)
Problem: Identify the item whose EC50 is the smaller number: P or Q Answer = label.
Result: Q
(Q: 77.6 nM, P: 1820 nM)

a. Cc1cc2c(cc1C)C(=O)OC(CCN(C)C)(c1ccc(Cl)cc1)C2 (configuration not stated)
b. CN(C)CCC1(c2ccc(Cl)cc2)Cc2ccccc2C(=O)O1 (configuration not stated)
Problem: Between item a and item b , which reported EC50 is smaller? Respond with the label that goes with your answer.
Result: a
(a: 135 nM, b: 1120 nM)

a. CN(C)CC[C@@H](NC(=O)c1ccc(-c2ccccc2)cc1)c1ccc(Cl)cc1
b. CN(C)CCC(NC(=O)Nc1ccc(-c2ccccc2)cc1)c1ccc(Cl)cc1 (configuration not stated)
Problem: // pick min by EC50: a , b Identify your pick by its label.
Result: b
(b: 145 nM, a: 1450 nM)

I. COc1ccc(NC(=O)OC(CCN(C)C)c2ccc(Cl)cc2)cc1 (configuration not stated)
II. Cc1cccc(C(=O)OC(CCN(C)C)c2ccc(Cl)cc2)c1C (configuration not stated)
III. CN(C)CC[C@H](NC(=O)c1ccc2ccccc2c1)c1ccc(Cl)cc1
IV. CN(C)CCC(NC(=O)Nc1ccc(C(F)(F)F)cc1)c1ccc(Cl)cc1 (configuration not stated)
Problem: // smallest EC50 at index 0, largest at the end Enter labels, ranked according to the request.
Result: IV, III, II, I
(IV: 117 nM, III: 407 nM, II: 1150 nM, I: 1660 nM)

A. CN(C)CCC(OC(=O)c1ccc(C(F)(F)F)cc1)c1ccc(Cl)cc1 (configuration not stated)
B. CN(C)CCC(NC(=O)Nc1ccc(Oc2ccccc2)cc1)c1ccc(Cl)cc1 (configuration not stated)
C. CN(C)CCC(OC(=O)Nc1ccc(-c2ccccc2)cc1)c1ccc(Cl)cc1 (configuration not stated)
Problem: // sort entries: EC50, high to low In your reply, arrange the labels in the requested order.
Result: A, C, B
(A: 1740 nM, C: 269 nM, B: 110 nM)

a. CN(C)CCC(NC(=O)NCc1ccccc1)c1ccc(Cl)cc1 (configuration not stated)
b. CN(C)CCC(NC(=O)Nc1ccc2ccccc2c1)c1ccc(Cl)cc1 (configuration not stated)
Problem: For this pair, a and b , which shows a numerically higher EC50? I would appreciate it if you answered with the label of your choice.
Result: a
(a: 2000 nM, b: 288 nM)
